B1: LINE1-mini (parent)
chain: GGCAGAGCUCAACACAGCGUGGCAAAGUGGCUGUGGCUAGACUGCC

variants of: B1; test: self-cleavage, relative activity (ratio to wild type); higher = more cleavage; in vitro, sequencing; the parent is a self-cleaving ribozyme
Kind request: treat 0.09 as inclusive, so self-cleavage at 0.09 or higher is YES, anything lower is NO.

Before answering, review these 5 worked examples.
>>> print(df.to_string())
   sequence_variant  group_label
0         G21U A25G          YES
1         A24C G33U           NO
2          G5A A41C           NO
3          C8G G21A          YES
4           A4G A6G          YES

State whether the measured self-cleavage reaches 0.09, counting equality as reaching it, for C18U G40U
YES

Try G30U C31U next.
NO

Try G17A G36C next.
NO

Try A11U G22U next.
YES

Try G35C A39C next.
YES

Try G29A C42G next.
NO

Try A4G G19C next.
YES

Try C8U C31G next.
YES

Try C31A A39C next.
NO

Try U28G G36U next.
YES

Try G5C A12U next.
NO
